List of IC50 values.
Target: T1, α4β1 (UniProt P13612 34-970; P05556 21-728)
T1 construct: The preparation is not described; also called VLA-4; alpha4beta1 integrin
Assay: competition ELISA; mixture of test mAb and mouse HP1/2 (competitor) on α4β1
Report the figure in nM without appending any unit label.

Guide cases for IC50, answers given:
H1L0 (antibody, V domains shown) VH: EVQLVQSGAEVKKPGATVKISCKASGFNIKDTYMHWVQQAPGKGLEWMGRIDPASGDTKYDPKFQVRVTITADTSTDTAYMELSSLRSEDTAVYYCADGMWVSTGYALDFWGQGTLVTVSS VL: DIVMTQSPDSLAVSLGERATINCKASQSVTNDVAWYQQKPGQPPKLLIYYASNRYTGVPDRFSGSGSGTDFTLTISSLQAEDVAVYYCQQDYSSPYTFGQGTKVEIK ... 4.46
H1L2 (antibody, V domains shown) VH: EVQLVQSGAEVKKPGATVKISCKASGFNIKDTYMHWVQQAPGKGLEWMGRIDPASGDTKYDPKFQVRVTITADTSTDTAYMELSSLRSEDTAVYYCADGMWVSTGYALDFWGQGTLVTVSS VL: SIVMTQSPDSLAVSLGERATINCKASQSVTNDVAWYQQKPGQPPKLLIYYASNRYTGVPDRFSGSGYGTDFTLTISSLQAEDVAVYFCQQDYSSPYTFGQGTKVEIK ... 1.34
H1L1 (antibody, V domains shown) VH: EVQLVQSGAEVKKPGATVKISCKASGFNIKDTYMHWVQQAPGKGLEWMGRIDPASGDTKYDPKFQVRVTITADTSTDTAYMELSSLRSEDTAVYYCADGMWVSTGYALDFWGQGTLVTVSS VL: SIVMTQSPDSLAVSLGERATINCKASQSVTNDVAWYQQKPGQPPKLLIYYASNRYTGVPDRFSGSGSGTDFTLTISSLQAEDVAVYFCQQDYSSPYTFGQGTKVEIK ... 4.55

// lookup IC50 for Chimeric HP1/2 (antibody, V domains shown, also called chimerized HP1/2 antibody; chimeric mAb) VH: EVQLQQSGAELVKPGASVKLSCTASGFNIKDTYMHWVKQRPEQGLEWIGRIDPASGDTKYDPKFQVKATITADTSSNTAWLQLSSLTSEDTAVYYCADGMWVSTGYALDFWGQGTTVTVSS VL: SIVMTQTPKFLLVSAGDRVTITCKASQSVTNDVAWYQQKPGQSPKLLIYYASNRYTGVPDRFTGSGYGTDFTFTISTVQAEDLAVYFCQQDYSSPYTFGGGTKLEIK 1.64
